# assay_summary: Plasma pharmacokinetics of refametinib
# Assay type: in vivo, human
# measurement_context: human, plasma, oral, AUC(0–8), cohort 2; cycle 1 day 14, refametinib alone; geometric mean (% CV)
readout_label: AUC(0-t) (ng·h/mL)
Numbers only, in ng·h/mL.

Input line: Determine from records and report AUC(0-t) for COc1cc(F)c(F)c(Nc2ccc(I)cc2F)c1NS(=O)(=O)C1(C[C@H](O)CO)CC1
Output line: 5110

---

# assay_summary: Plasma pharmacokinetics of refametinib
# Format: in vivo, human
# measurement_context: human, plasma, oral, 30 mg, Cmax, expansion cohort: copanlisib 0.4 mg/kg weekly, refametinib 30 mg BID; cycle 1 day 14, refametinib alone; geometric mean (% CV)
readout_label: Cmax (ng/mL)
Answers are plain numbers, in ng/mL.

Input line: Determine from records and report Cmax for COc1cc(F)c(F)c(Nc2ccc(I)cc2F)c1NS(=O)(=O)C1(C[C@H](O)CO)CC1
Output line: 845

---

# assay_summary: Plasma pharmacokinetics of refametinib
# Assay type: in vivo, human
# measurement_context: human, plasma, oral, 30 mg, AUC(0–8), expansion cohort: copanlisib 0.4 mg/kg weekly, refametinib 30 mg BID; cycle 1 day 14, refametinib alone; geometric mean (% CV)
readout_label: AUC(0-t) (ng·h/mL)
Give bare numbers, in ng·h/mL.

Input line: Determine from records and report AUC(0-t) for COc1cc(F)c(F)c(Nc2ccc(I)cc2F)c1NS(=O)(=O)C1(C[C@H](O)CO)CC1 [refametinib]
Output line: 5310

---

# assay_summary: Plasma pharmacokinetics of copanlisib
# Assay type: in vivo, human
# measurement_context: human, plasma, intravenous, 0.4 mg/kg, Cmax, cohort 2C: copanlisib 0.4 mg/kg weekly, refametinib 30 mg BID; cycle 1 day 1, copanlisib alone; geometric mean (% CV)
readout_label: Cmax (ng/mL)
Give bare numbers, in ng/mL.

Input line: Determine from records and report Cmax for COc1c(OCCCN2CCOCC2)ccc2c1N=C(NC(=O)c1cnc(N)nc1)N1CCN=C21
Output line: 241

---

# assay_summary: Plasma pharmacokinetics of copanlisib
# Format: in vivo, human
# measurement_context: human, plasma, intravenous, Cmax, cohort 2; cycle 1 day 1, copanlisib alone; geometric mean (% CV)
readout_label: Cmax (ng/mL)
Give bare numbers, in ng/mL.

Input line: Determine from records and report Cmax for COc1c(OCCCN2CCOCC2)ccc2c1N=C(NC(=O)c1cnc(N)nc1)N1CCN=C21 [copanlisib]
Output line: 189

---

# assay_summary: Plasma pharmacokinetics of copanlisib
# Format: in vivo, human
# measurement_context: human, plasma, intravenous, 0.2 mg/kg, Cmax, cohort 1: copanlisib 0.2 mg/kg 3 weeks on/1 week off, refametinib 30 mg BID; cycle 1 day 1, copanlisib alone; geometric mean (% CV)
readout_label: Cmax

Input line: Determine from records and report Cmax for COc1c(OCCCN2CCOCC2)ccc2c1N=C(NC(=O)c1cnc(N)nc1)N1CCN=C21
Output line: 126 ng/mL

---

# assay_summary: Plasma pharmacokinetics of copanlisib
# Type: in vivo, human
# measurement_context: human, plasma, intravenous, 0.4 mg/kg, AUC(0–25), expansion cohort: copanlisib 0.4 mg/kg weekly, refametinib 30 mg BID; cycle 1 day 1, copanlisib alone; geometric mean (% CV)
readout_label: AUC(0-t) (ng·h/mL)
Give bare numbers, in ng·h/mL.

Input line: Determine from records and report AUC(0-t) for COc1c(OCCCN2CCOCC2)ccc2c1N=C(NC(=O)c1cnc(N)nc1)N1CCN=C21 [copanlisib]
Output line: 890
